Quick reference for abundance fitness among some variants
B1: DnaJ homolog subfamily C member 5, residues 16 to 77; numbered along this chain, Q9H3Z4 (parent)
chain: LYHVLGLDKNATSDDIKKSYRKLALKYHPDKNPDNPEAADKFKEINNAHAILTDATKRNIYD

Variants of: B1
Test Protocol: abundance fitness (aPCA) (normalised: wild type 0, dead -1); higher = more abundant; growth selection in yeast, the domain comes from the species named
Measurement Context: Homo sapiens
Lab note: record just the number, no unit beside it.

- Residues: "LYSVLGLDKNATSDDIKKSYRKLALKYHPDKNPDNPEAADKFKEINNAHAILTDATKRNIYD [H3S]"
  abundance fitness: 0.147
- Residues: "LYHVLGLDKNATSDDIKKSYRKLALKYHPDKNPNNPEAADKFKEINNAHAILTDATKRNIYD [D34N]"
  abundance fitness: -0.299
- Residues: "LYHVLGLDKNATSDDIKKSYRKLALKYHPDKNPDNPEAADKFKEINNAHAILSDATKRNIYD [T53S]"
  abundance fitness: -0.116
- Residues: "LYHVLGLDKNATSDDIKKSYRKLALKYHPDKNPDNPEANDKFKEINNAHAILTDATKRNIYD [A39N]"
  abundance fitness: 0.003
- Residues: "LYHVLGLDKNATSDDIKKSYRKLALKYHPDKNCDNPEAADKFKEINNAHAILTDATKRNIYD [P33C]"
  abundance fitness: -0.327

In: Recorded abundance fitness for LYHVLGLDKNATSDDIKKSYRKLALKYHPDKNPDNPETADKFKEINNAHAILTDATKRNIYD [A38T] , please?
Out: -0.292

In: Field request: abundance fitness | item: LYHVLGLDKNATSDDIKKSYRKLALKYHPDKNPDNPEAADKRKEINNAHAILTDATKRNIYD [F42R]
Out: -0.17

In: # get_value(readout='abundance fitness', item= LYHVLGLDKNATSDDIKKSYRKLALKYHPDKNPDNPEAADKFKEINNAHAILADATKRNIYD [T53A] )
Out: -0.118

In: So what's the measured abundance fitness for this one? LYHVLGLDKNATSDDIKKSYRKYALKYHPDKNPDNPEAADKFKEINNAHAILTDATKRNIYD [L23Y]
Out: -0.403
